Hello, the source for this data is paper PMC7156724, in case you need it.

experiment.summary: in vitro
condition.notes: monkey, microsomes, pH 7.4
measured.parameter: microsomal CLint at 1 µM (µL/min/mg)
Report only the number, with the unit µL/min/mg understood.

Q) Which microsomal CLint at 1 µM is reported for this molecule? Cc1nnn(C)c1-c1cnc2c3c4cnn(C)c4ccc3n([C@H](c3ccccc3)C3CCOCC3)c2c1
A) 46.2

---

experiment.summary: Metabolic stability assay, human liver microsomes
condition.notes: human, liver microsomes, pH 7.4
measured.parameter: CLint scaled at 1 µM (mL/min/kg)
Report only the number, with the unit mL/min/kg understood.

Q) Which CLint scaled at 1 µM is reported for this molecule? Cc1nnn(C)c1-c1cnc2c3c4cnn(C)c4ccc3n([C@H](c3ccccc3)C3CCOCC3)c2c1
A) 45.3

---

experiment.summary: in vitro
condition.notes: CD-1, mouse
measured.parameter: recovery (%)
Report only the number, with the unit % understood.

Q) Which recovery is reported for this compound? CC(=O)CC(c1ccccc1)c1c(O)c2ccccc2oc1=O (stereo not shown) [Warfarin, reference compound]
A) 99.2

---

Test system: MDA-MB231 triple negative breast cancer (TNBC) cells
experiment.summary: AlamarBlue assay, MDA-MB231
Assay type: cell-based, human
condition.notes: Homo sapiens, MDA-MB-231, 72 h, 72 h treatment; nM; read-out: IC50, cellular activity in MDA-MB231 (alamarBlue)
measured.parameter: log10(IC50) (log10 of the value in nM)
Heads up, the numbers here are log10 of IC50 in nM units.

Answered cases to consult:
- Cc1nnn(C)c1-c1cnc2c3cc4cnn(C)c4cc3n([C@H](c3ccccc3)C3CCOCC3)c2c1: 1.16
- Cc1nnn(C)c1-c1cnc2c3ccc(C(C)(C)O)cc3n([C@H](c3ccccc3)C3CCOCC3)c2c1 [BMS-986158, reference compound]: 0.70
- Cc1nnn(C)c1-c1cnc2c3c4c(ccc3n([C@H](c3ccccc3)C3CCOCC3)c2c1)cnn4C: 0.85
- Cc1nnn(C)c1-c1cnc2c3c4cnn(C)c4ccc3n([C@H](c3ccccc3)C3CCOCC3)c2c1: 0.20

Then this compound:
Q) Which log10(IC50) is reported for this compound? Cc1nnn(C)c1-c1cnc2c3cc4c(cnn4C)cc3n([C@H](c3ccccc3)C3CCOCC3)c2c1
A) 1.50

---

experiment.summary: MTS assay of non-cancerous cells
Type: cell-based, human
condition.notes: human, HaCAT cells (immortalized human keratinocytes), 48h; 32 nM; read-out: Cell viability (Sup Fig.4b)
measured.parameter: viability at 48 h, 0.032 µM
Your reply should be a number followed by the unit it is expressed in.

Q) Which viability at 48 h, 0.032 µM is reported for this molecule? Cc1nnn(C)c1-c1cnc2c3c4cnn(C)c4ccc3n([C@H](c3ccccc3)C3CCOCC3)c2c1
A) 91%

---

experiment.summary: In vivo pharmacokinetics study, mouse
condition.notes: male, BALB/c nude, plasma, iv, 1.75 mg/kg, IV 1.75 mg/kg, 8 h, individual mice, read-out: Plasma concentration
measured.parameter: concentration at 8 h (ng/mL)
Report only the number, with the unit ng/mL understood.

Q) Which concentration at 8 h is reported for this compound? Cc1nnn(C)c1-c1cnc2c3c4cnn(C)c4ccc3n([C@H](c3ccccc3)C3CCOCC3)c2c1
A) 50.2

---

experiment.summary: In vivo pharmacokinetics study, mouse
condition.notes: male, BALB/c nude, plasma, iv, 1.75 mg/kg, IV 1.75 mg/kg, 2 h, mean of 3 mice, read-out: Plasma concentration, Mean
measured.parameter: concentration at 2 h (ng/mL)
Report only the number, with the unit ng/mL understood.

Q) Which concentration at 2 h is reported for this molecule? Cc1nnn(C)c1-c1cnc2c3c4cnn(C)c4ccc3n([C@H](c3ccccc3)C3CCOCC3)c2c1
A) 302

---

experiment.summary: Concentration in lungs and tumors of H526 xenograft model
Type: in vivo, mouse
condition.notes: female, BALB/c nude, mouse, lung, oral, 3 mg/kg, Group 4, 3 mg/kg Q2D, 24h, mean; read-out: Mean Concentration in Lung
measured.parameter: concentration at 24 h (ng/g)
Report only the number, with the unit ng/g understood.

Q) Which concentration at 24 h is reported for this compound? Cc1nnn(C)c1-c1cnc2c3c4cnn(C)c4ccc3n([C@H](c3ccccc3)C3CCOCC3)c2c1
A) 46.9

---

Tested on: NCI-H211 small cell lung cancer (SCLC) cells
experiment.summary: AlamarBlue assay, NCI-H211
Assay type: cell-based
condition.notes: Homo sapiens, NCI-H211, 72 h, 72 h treatment; nM; read-out: IC50, cellular activity in NCI-H211 (alamarBlue)
Collected IC50 values appear next to each entry.
Report only the number, with the unit nM understood.

Answered cases to consult:
* Cc1nnn(C)c1-c1cnc2c3c4cnn(C)c4ccc3n([C@H](c3ccccc3)C3CCOCC3)c2c1 | 2
* Cc1nnn(C)c1-c1cnc2c3cc4c(cnn4C)cc3n([C@H](c3ccccc3)C3CCOCC3)c2c1 | 38

Q) Which IC50 is reported for this compound? Cc1nnn(C)c1-c1cnc2c3cc4cnn(C)c4cc3n([C@H](c3ccccc3)C3CCOCC3)c2c1
A) 16

Q) Which IC50 is reported for this compound? Cc1nnn(C)c1-c1cnc2c3c4c(ccc3n([C@H](c3ccccc3)C3CCOCC3)c2c1)cnn4C
A) 8.06

Q) Which IC50 is reported for this compound? Cc1nnn(C)c1-c1cnc2c3ccc(C(C)(C)O)cc3n([C@H](c3ccccc3)C3CCOCC3)c2c1 [BMS-986158, reference compound]
A) 6.6

---

experiment.summary: Metabolic stability assay, human liver microsomes
condition.notes: mouse, rat, dog, monkey, human, liver microsomes, pH 7.4
measured.parameter: half-life at 1 µM

Q) Which half-life at 1 µM is reported for this compound? Cc1nnn(C)c1-c1cnc2c3c4cnn(C)c4ccc3n([C@H](c3ccccc3)C3CCOCC3)c2c1
A) 21 to 39 min

---

experiment.summary: In vivo pharmacokinetics study, mouse
condition.notes: male, BALB/c nude, plasma, IV 1.75 mg/kg
measured.parameter: AUC(0-t) (ng·h/mL)
Report only the number, with the unit ng·h/mL understood.

Q) Which AUC(0-t) is reported for this molecule? Cc1nnn(C)c1-c1cnc2c3c4cnn(C)c4ccc3n([C@H](c3ccccc3)C3CCOCC3)c2c1
A) 939

---

experiment.summary: Concentration in lungs and tumors of H526 xenograft model
Type: in vivo, mouse
condition.notes: female, BALB/c nude, mouse, lung, oral, 3 mg/kg, Group 2, 3 mg/kg QD, 8h, mean; read-out: Mean Concentration in Lung
Procedure: Supplementary Figure 7. Pharmacokinetic profile of NHWD-870 using mouse and rat models. […] 98615821 on day 21. These mice were administrated the indicated drug daily for 21 days. Data are represented as mean ± SEM of 3 independent experiments. Source data are provided as a Source Data file. […] 9. In vivo pharmacokinetics study. Mouse and SD rat models were used to evaluate pharmacokinetic property of NHWD-870. […] Concentration of drugs in plasma, lung and tumor tissues were measured for the indicated time. […]
measured.parameter: concentration at 8 h (ng/g)
Report only the number, with the unit ng/g understood.

Q) Which concentration at 8 h is reported for this compound? Cc1nnn(C)c1-c1cnc2c3c4cnn(C)c4ccc3n([C@H](c3ccccc3)C3CCOCC3)c2c1 [NHWD-870]
A) 89.4

---

experiment.summary: In vivo pharmacokinetics study, mouse
condition.notes: male, BALB/c nude, plasma, PO 5 mg/kg
measured.parameter: Tmax

Q) Which Tmax is reported for this compound? Cc1nnn(C)c1-c1cnc2c3c4cnn(C)c4ccc3n([C@H](c3ccccc3)C3CCOCC3)c2c1 [NHWD-870]
A) 1.33 h

---

experiment.summary: In vivo pharmacokinetics study, mouse
condition.notes: male, BALB/c nude, plasma, po, 5 mg/kg, PO 5 mg/kg, 8 h, mean of 3 mice, read-out: Plasma concentration, Mean
measured.parameter: concentration at 8 h (ng/mL)
Report only the number, with the unit ng/mL understood.

Q) Which concentration at 8 h is reported for this compound? Cc1nnn(C)c1-c1cnc2c3c4cnn(C)c4ccc3n([C@H](c3ccccc3)C3CCOCC3)c2c1
A) 119

---

experiment.summary: In vivo pharmacokinetics study, mouse
condition.notes: male, BALB/c nude, plasma, iv, 1.75 mg/kg, IV 1.75 mg/kg, 5 min, mean of 3 mice, read-out: Plasma concentration, Mean
measured.parameter: concentration at 5 min (ng/mL)
Report only the number, with the unit ng/mL understood.

Q) Which concentration at 5 min is reported for this compound? Cc1nnn(C)c1-c1cnc2c3c4cnn(C)c4ccc3n([C@H](c3ccccc3)C3CCOCC3)c2c1
A) 560

---

experiment.summary: MTS assay of non-cancerous cells
Assay type: cell-based, human
condition.notes: human, HaCAT cells (immortalized human keratinocytes), 48h; 64 nM; read-out: Cell viability (Sup Fig.4b)
Experimental: Supplementary Figure 4. […] (a-c) MTS assays of HaCAT cells (immortalized human keratinocytes) treated with the indicated concentration of NHWD-870 for 24h (a), 48h (b) or 72h (c). Data are presented as mean ± SEM of 5 independent experiments. p values were calculated from two-tailed, unpaired t tests. Source data are provided as a Source Data file. 37℃, 5% CO2. […]
measured.parameter: viability at 48 h, 0.064 µM (%)
Report only the number, with the unit % understood.

Q) Which viability at 48 h, 0.064 µM is reported for this compound? Cc1nnn(C)c1-c1cnc2c3c4cnn(C)c4ccc3n([C@H](c3ccccc3)C3CCOCC3)c2c1
A) 83.9
